# Assay name: Blood glucose level after rectal insulin administration (rabbit)
# Type: in vivo
# Cond: rectal suppository, Insulin 6 I. U., Compound (I) 5%, Witepsol H-15, relative to hour 0 = 100%
Metric: Blood glucose level 0.5 hr. (%)
One number for each entry, in %.

Example compounds with recorded Blood glucose level 0.5 hr.:
[[record]]
compound = "O=C(O)CCCCCCCCCCCC(=O)O [Compound 5-Na, 1,11-Undecamethylene dicarboxylic acid]"
metric = "Blood glucose level 0.5 hr."
unit_symbol = "%"
reading = 60.0

[[record]]
compound = "CCCCCCCC(=O)N[C@@H](Cc1ccccc1)C(=O)O [Compound 23-Na, N--Capryloyl-L-phenylalanine]"
metric = "Blood glucose level 0.5 hr."
unit_symbol = "%"
reading = 59.0

[[record]]
compound = "O=C(O)CCCCCCCCCCC(=O)O [Compound 2-Na, 1,10-Decamethylenedicarboxylic acid]"
metric = "Blood glucose level 0.5 hr."
unit_symbol = "%"
reading = 57.0

[[record]]
compound = "CCCCOc1ccc(C(=O)O)cc1 [Compound 3-Na, p-Butoxybenzoic acid]"
metric = "Blood glucose level 0.5 hr."
unit_symbol = "%"
reading = 60.0


Request: // Blood glucose level 0.5 hr. lookup, key: CCCC(=O)NC(C(=O)O)c1ccccc1 (racemic) [Compound 29-Na, N--Butyryl-DL-phenylglycine]
Response: 60.0
